target: Sphingosine 1-phosphate receptor 4 (Homo sapiens) (UniProt O95977); test: Agonist activity at human SIP4 receptor at 10 uM by [35S]GTPgammaS binding assay relative to S1P; assay type: functional
Sequence (O95977 whole entry): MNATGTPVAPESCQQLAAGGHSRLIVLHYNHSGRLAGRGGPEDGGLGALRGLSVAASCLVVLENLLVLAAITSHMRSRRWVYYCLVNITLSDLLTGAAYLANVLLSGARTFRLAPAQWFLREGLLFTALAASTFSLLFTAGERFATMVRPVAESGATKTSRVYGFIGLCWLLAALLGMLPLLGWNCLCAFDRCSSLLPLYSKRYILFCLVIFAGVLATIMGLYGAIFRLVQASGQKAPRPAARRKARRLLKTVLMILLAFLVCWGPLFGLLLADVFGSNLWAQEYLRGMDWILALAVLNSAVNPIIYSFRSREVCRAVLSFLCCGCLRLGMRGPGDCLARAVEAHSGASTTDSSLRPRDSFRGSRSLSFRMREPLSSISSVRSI
Property Label: Emax (%)

Examples from the recorded data:
query_smiles=Cc1nn(S(=O)(=O)/C=C/c2ccccc2)c2c1[C@H]1[C@@H](C2)C1(C)C result_value=-19
query_smiles=Cc1nn(C(=O)CCc2ccccc2)c2c1[C@H]1[C@@H](C2)C1(C)C result_value=0
query_smiles=CCCCCCC(=O)n1nc(C)c2c1C[C@@H]1[C@H]2C1(C)C result_value=-6
query_smiles=Cc1nn(C(=O)/C=C/c2ccc(-c3ccccc3)cc2)c2c1[C@H]1[C@@H](C2)C1(C)C result_value=1

A: Cc1nn(C(=O)/C=C/c2ccncc2)c2c1[C@H]1[C@@H](C2)C1(C)C
B: Cc1nn(C(=O)/C=C/c2ccccc2Cl)c2c1[C@H]1[C@@H](C2)C1(C)C
[in] Given the listed items, does A or B have the lesser reported Emax? Return value: the label identifying the chosen record.
[out] B

a: Cc1nn(C(=O)/C=C/c2cccnc2)c2c1[C@H]1[C@@H](C2)C1(C)C
b: Cc1nn(C(=O)/C=C/c2cccc(C(F)(F)F)c2)c2c1[C@H]1[C@@H](C2)C1(C)C
[in] Sort a and b by Emax descending and give the first. Please reply using the label of the selected record.
[out] a
(a: 30%, b: 17%)

* * *

biological target: UniProt:Q9H228; assay: Agonist activity at human SIP5 receptor by [35S]GTPgammaS binding assay
Sequence (Q9H228 whole entry): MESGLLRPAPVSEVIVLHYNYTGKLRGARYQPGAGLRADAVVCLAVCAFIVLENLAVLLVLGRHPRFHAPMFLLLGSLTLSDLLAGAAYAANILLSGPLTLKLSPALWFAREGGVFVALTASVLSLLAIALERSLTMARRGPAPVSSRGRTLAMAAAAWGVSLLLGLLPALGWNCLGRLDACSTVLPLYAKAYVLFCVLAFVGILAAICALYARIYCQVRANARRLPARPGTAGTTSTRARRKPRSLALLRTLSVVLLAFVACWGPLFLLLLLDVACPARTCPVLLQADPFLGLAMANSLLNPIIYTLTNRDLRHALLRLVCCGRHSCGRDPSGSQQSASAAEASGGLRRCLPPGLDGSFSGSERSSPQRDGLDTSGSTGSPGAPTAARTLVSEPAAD
Property Label: EC50 (µM)

1: Cc1nn(C(=O)/C=C/c2ccccc2)c2c1[C@H]1[C@@H](C2)C1(C)C
2: Cc1nn(C(=O)/C=C/c2ccncc2)c2c1[C@H]1[C@@H](C2)C1(C)C
3: COc1ccc(/C=C/C(=O)n2nc(C)c3c2C[C@@H]2[C@H]3C2(C)C)cc1OC
[in] Hey, quick one: sort these by EC50, low to high? // rank by listing labels in the order requested
[out] 2, 3, 1

* * *

biological target: Sphingosine 1-phosphate receptor 3 (Homo sapiens, UniProt Q99500); assay: Agonist activity at human SIP3 receptor at 10 uM by [35S]GTPgammaS binding assay relative to S1P; type: functional
Sequence (Q99500 whole entry): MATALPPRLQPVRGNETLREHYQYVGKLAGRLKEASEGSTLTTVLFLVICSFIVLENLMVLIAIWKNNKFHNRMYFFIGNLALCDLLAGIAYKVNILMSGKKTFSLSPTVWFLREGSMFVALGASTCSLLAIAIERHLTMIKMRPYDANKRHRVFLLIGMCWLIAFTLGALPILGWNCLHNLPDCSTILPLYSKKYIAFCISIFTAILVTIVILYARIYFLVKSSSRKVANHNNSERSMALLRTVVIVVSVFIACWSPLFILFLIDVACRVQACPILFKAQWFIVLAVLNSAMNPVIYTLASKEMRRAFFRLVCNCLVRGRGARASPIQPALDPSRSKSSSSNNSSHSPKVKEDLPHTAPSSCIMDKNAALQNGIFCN
Property Label: Emax (%)

Please review the entries below; each comes with its answer.
query_smiles=Cc1nn(C(=O)/C=C/c2cccc(C(F)(F)F)c2)c2c1[C@H]1[C@@H](C2)C1(C)C result_value=46
query_smiles=Cc1nn(C(=O)/C=C/c2ccncc2)c2c1[C@H]1[C@@H](C2)C1(C)C result_value=83
query_smiles=Cc1nn(C(=O)/C=C/c2ccccc2)c2c1[C@H]1[C@@H](C2)C1(C)C result_value=94
query_smiles=Cc1nn(C(=O)/C=C/c2cccc(S(N)(=O)=O)c2)c2c1[C@H]1[C@@H](C2)C1(C)C result_value=84
query_smiles=Cc1nn(C(=O)/C=C/c2cccnc2)c2c1[C@H]1[C@@H](C2)C1(C)C result_value=61

P: Cc1nn(C(=O)/C=C/c2cccc3[nH]ccc23)c2c1[C@H]1[C@@H](C2)C1(C)C
Q: Cc1nn(C(=O)CCc2ccccc2)c2c1[C@H]1[C@@H](C2)C1(C)C
R: Cc1nn(S(=O)(=O)/C=C/c2ccccc2)c2c1[C@H]1[C@@H](C2)C1(C)C
S: Cc1nn(C/C=C/c2ccccc2)c2c1[C@H]1[C@@H](C2)C1(C)C
[in] Exam item: list the entries in increasing order of Emax. # answer = labels listed in requested order
[out] R, S, Q, P
(R: -2%, S: 14%, Q: 38%, P: 84%)

* * *

molecular target: Sphingosine 1-phosphate receptor 3 (Homo sapiens); test: Agonist activity at human SIP3 receptor by [35S]GTPgammaS binding assay
pEC50: −log10 of the molar value.
Entries and their measured pEC50 follow.

Field pEC50 (system: Sphingosine 1-phosphate receptor 3 (Homo sapiens)) for entry Cc1nn(C(=O)/C=C/c2cccc3[nH]ccc23)c2c1[C@H]1[C@@H](C2)C1(C)C = 6.00

Bench note, Sphingosine 1-phosphate receptor 3 (Homo sapiens): entry Cc1nn(C(=O)/C=C/C2CCCCC2)c2c1[C@H]1[C@@H](C2)C1(C)C , its pEC50 = < 5.00

For Cc1nn(C/C=C/c2ccccc2)c2c1[C@H]1[C@@H](C2)C1(C)C on Sphingosine 1-phosphate receptor 3 (Homo sapiens), measured pEC50 was < 5.00

* * *

molecular target: Sphingosine 1-phosphate receptor 1 (Homo sapiens, UniProt P21453); conditions: CHO, at 10 µM
Sequence (P21453 whole entry): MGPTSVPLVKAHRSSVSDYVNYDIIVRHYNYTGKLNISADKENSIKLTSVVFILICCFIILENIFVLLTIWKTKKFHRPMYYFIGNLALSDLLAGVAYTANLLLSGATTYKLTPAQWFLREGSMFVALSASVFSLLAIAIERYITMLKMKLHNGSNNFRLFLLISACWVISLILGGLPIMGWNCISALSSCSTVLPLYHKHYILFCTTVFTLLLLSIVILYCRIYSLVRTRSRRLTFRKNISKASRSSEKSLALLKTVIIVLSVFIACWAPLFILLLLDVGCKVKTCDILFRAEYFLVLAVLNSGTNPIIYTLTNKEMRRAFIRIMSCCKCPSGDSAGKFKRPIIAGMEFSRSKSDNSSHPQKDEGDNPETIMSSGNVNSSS
Description: Agonist activity at human SIP1 receptor expressed in CHO cells at 10 uM by [35S]GTPgammaS binding assay relative to S1P
Property Label: Emax (%)

A: Cc1nn(C(=O)/C=C/c2cccc(S(N)(=O)=O)c2)c2c1[C@H]1[C@@H](C2)C1(C)C
B: Cc1nn(C(=O)CCc2ccccc2)c2c1[C@H]1[C@@H](C2)C1(C)C
[in] Emax comparison. Which is larger, A or B ? Pick one and reply with its label.
[out] A

* * *

biological target: Sphingosine 1-phosphate receptor 4 (Homo sapiens) (UniProt O95977); experiment: Agonist activity at human SIP4 receptor at 10 uM by [35S]GTPgammaS binding assay relative to S1P; format: functional
Property Label: Emax (%)

Observe how each entry below is paired with its result.
query_smiles=Cc1nn(C(=O)/C=C/c2ccc(S(N)(=O)=O)cc2)c2c1[C@H]1[C@@H](C2)C1(C)C property_label=Emax result_value=-22
query_smiles=Cc1nn(C(=O)/C=C/C2CCCCC2)c2c1[C@H]1[C@@H](C2)C1(C)C property_label=Emax result_value=15
query_smiles=Cc1nn(C(=O)/C=C/c2ccccc2)c2c1[C@H]1[C@@H](C2)C1(C)C property_label=Emax result_value=-2
query_smiles=Cc1nn(C/C=C/c2ccccc2)c2c1[C@H]1[C@@H](C2)C1(C)C property_label=Emax result_value=10
query_smiles=Cc1nn(C(=O)/C=C/c2cccc3[nH]ccc23)c2c1[C@H]1[C@@H](C2)C1(C)C property_label=Emax result_value=28

1: COc1ccc(/C=C/C(=O)n2nc(C)c3c2C[C@@H]2[C@H]3C2(C)C)cc1OC
2: Cc1nn(C(=O)/C=C/c2cccc(S(N)(=O)=O)c2)c2c1[C@H]1[C@@H](C2)C1(C)C
[in] Between the two listed entries 1 and 2 , which has its Emax at the higher number? Answer by quoting the chosen item's label.
[out] 1

* * *

target: Sphingosine 1-phosphate receptor 1 (Homo sapiens, UniProt P21453); settings: CHO, at 10 µM;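 further: agonist effect measured as [35S]GTPγS binding, expressed as percentage of the maximal response to S1P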
Property Label: Emax (%)

query_smiles=COc1ccc(/C=C/C(=O)n2nc(C)c3c2C[C@@H]2[C@H]3C2(C)C)cc1OC result_value=89
query_smiles=Cc1nn(C(=O)/C=C/c2cccnc2)c2c1[C@H]1[C@@H](C2)C1(C)C result_value=90
query_smiles=Cc1nn(C(=O)/C=C/c2cccc3[nH]ccc23)c2c1[C@H]1[C@@H](C2)C1(C)C result_value=90

1: Cc1nn(C(=O)/C=C/c2cccc(C(F)(F)F)c2)c2c1[C@H]1[C@@H](C2)C1(C)C
2: CCCCCCC(=O)n1nc(C)c2c1C[C@@H]1[C@H]2C1(C)C
[in] Please choose the item with the lower Emax value from this pair: 1 and 2 Output the label that corresponds to your choice.
[out] 2
(2: 25%, 1: 65%)
